# Test system: MDA-MB-231
# assay name: kynurenine production, fold change vs DMSO IFNg/TNF control; higher = more kynurenine produced (less inhibition)
# settings: pre-treatment time: 18 h then 24 h IFNg/TNF
Recorded kynurenine production values for a group of molecules are listed next.
Lab note: write the figure by itself, no unit.

Would you please look over these solved cases?
molecule	target under test	meas value
C=C(C)C1CC=C(C)CC1 (stereo not drawn) [(s)-(-)-limonene] (compound dose: 10 uM)	MDA-MB-231	0.84
O=C1C[C@@H](c2ccc(O)cc2)Oc2cc(O)cc(O)c21 [Naringenin] (compound dose: 10 uM)	MDA-MB-231	0.772
C=C1C(=O)O[C@H]2[C@H]1CCC(C)=C1CC[C@@](C)(O)[C@@H]12 [Micheliolide] (compound dose: 10 uM)	MDA-MB-231	0.591
CC(CC(=O)C[C@](C)(O)[C@H]1CC(=O)[C@@]2(C)C3=C(C(=O)C[C@]12C)[C@@]1(C)CCC(=O)C(C)(C)[C@@H]1C[C@@H]3O)C(=O)O (stereo not given in full) [Ganoderic acid N] (compound dose: 10 uM)	MDA-MB-231	0.857
C=C(C)[C@@H]1CC[C@]2(C=O)CC[C@]3(C)[C@H](CC[C@@H]4[C@@]5(C)CC[C@H](O)C(C)(C)[C@@H]5CC[C@]43C)[C@@H]12 [Betulinaldehyde] (compound dose: 10 uM)	MDA-MB-231	0.697
C=C(C)[C@H]1CC=C(C)C(=O)C1 [D(+)-carvone] (compound dose: 10 uM)	MDA-MB-231	0.864

Here's the next entry for you.
Query string: // returns reported kynurenine production for input C=C1C[C@@]23CC[C@H]4[C@@](C)(CCC[C@@]4(C)C(=O)O)[C@@H]2CC[C@]1(O)C3 [Steviol] (compound dose: 10 uM)
Result string: 0.964

----------
# Tested on: MDA-MB-231
# assay name: kynurenine production, fold change vs DMSO IFNg/TNF control; higher = more kynurenine produced (less inhibition)
# settings: pre-treatment time: 18 h then 24 h IFNg/TNF
Decide by kynurenine production: equal to or exceeding 0.8 means true, less means false.

molecule	class
CC[C@@H](C(=O)[C@@H](C)[C@@H](O)[C@H](C)CCc1ccc(C)c(O)c1C(=O)O)[C@H]1O[C@](CC)([C@H]2CC[C@](O)(CC)[C@H](C)O2)C[C@@H]1C [Lasalocid (sodium)] (compound dose: 10 uM)	false
C=C1C(=O)O[C@H]2[C@H]1CC/C(C)=C/CC[C@@]1(C)O[C@@H]21 [Parthenolide] (compound dose: 10 uM)	false
C=C1C[C@@]23CC[C@H]4[C@@](C)(CCC[C@@]4(C)C(=O)O)[C@@H]2CC[C@]1(O[C@@H]1O[C@@H](CO)[C@@H](O)[C@H](O)[C@@H]1O[C@@H]1O[C@@H](CO)[C@@H](O)[C@H](O)[C@@H]1O)C3 [Steviolbioside] (compound dose: 10 uM)	true
C=C1CC[C@@H]2[C@](C)(CO)[C@H](O)CC[C@@]2(C)[C@H]1C/C=C1\C=COC1=O [Dehydroandrographolide] (compound dose: 10 uM)	false

Query string: Could you verify whether the entry C/C1=C\CC/C(C)=C/C2C(CC/C(C)=C/CC1)C2(C)C (stereo not given) [Casbene] (compound dose: 10 uM) shows kynurenine production of no less than 0.8?
Result string: true

----------
Recorded kynurenine production values for a group of compounds are listed next.
# System: MDA-MB-231
# assay name: kynurenine production, fold change vs DMSO IFNg/TNF control; higher = more kynurenine produced (less inhibition)
# settings: pre-treatment time: 18 h then 24 h IFNg/TNF
Lab note: write the figure by itself, no unit.

Would you please look over these solved cases?
compound	kynurenine production
CC1(C)CC[C@]2(C(=O)O)[C@H](O)C[C@]3(C)C(=CC[C@@H]4[C@@]5(C)CC[C@H](O)[C@@](C)(C=O)[C@@H]5CC[C@]43C)[C@@H]2C1 [Quillaic acid] (compound dose: 10 uM)	1.11
CC(=O)OCC1=CCC2C(C=C(C)C(=O)C3(OC(C)=O)CC(C)C(OC(=O)c4ccccc4)C3C1OC(C)=O)C2(C)C (configuration not stated) [Euphorbia factor L7b] (compound dose: 10 uM)	0.936
C=C(C)[C@@H]1CCC2=CC(=O)C[C@@H](C)[C@]2(C)C1 [Nootkatone] (compound dose: 10 uM)	0.932
C/C=C(/C)C(=O)O[C@H]1[C@H](OC(C)=O)[C@]2(CO)[C@H](O)C[C@]3(C)C(=CC[C@@H]4[C@@]5(C)CC[C@H](O[C@@H]6O[C@H](C(=O)O)[C@@H](O[C@@H]7O[C@H](CO)[C@@H](O)[C@H](O)[C@H]7O)[C@H](O)[C@H]6O[C@@H]6O[C@H](CO)[C@@H](O)[C@H](O)[C@H]6O)[C@](C)(CO)[C@@H]5CC[C@]43C)[C@@H]2CC1(C)C [Escin IB] (compound dose: 10 uM)	0.801
C[C@H]1[C@H](C)CC[C@]2(C(=O)O[C@@H]3O[C@H](CO[C@@H]4O[C@H](CO)[C@@H](O[C@@H]5O[C@H](C)[C@H](O)[C@@H](O)[C@H]5O)[C@H](O)[C@H]4O)[C@@H](O)[C@H](O)[C@H]3O)CC[C@]3(C)C(=CC[C@@H]4[C@@]5(C)C[C@@H](O)[C@H](O)[C@@](C)(CO)[C@@H]5CC[C@]43C)[C@H]12 [Asiaticoside] (compound dose: 10 uM)	0.85

Query string: // returns reported kynurenine production for input CC(=O)O[C@H]1C(=O)[C@@]2(C)[C@H]([C@H](OC(=O)c3ccccc3)[C@]3(O)C[C@H](OC(=O)[C@H](O)[C@@H](NC(=O)c4ccccc4)c4ccccc4)C(C)=C1C3(C)C)[C@]1(OC(C)=O)CO[C@@H]1C[C@@H]2O [Paclitaxel] (compound dose: 10 uM)
Result string: 0.317

Query string: // returns reported kynurenine production for input C=C1C(=O)[C@]23[C@H](O)[C@H]1CC[C@H]2[C@@]12CO[C@]3(O)[C@@H](O)[C@@H]1C(C)(C)CC[C@@H]2O [Oridonin] (compound dose: 10 uM)
Result string: 0.73

Query string: // returns reported kynurenine production for input COc1cc2cc3c4c(cc5c(c4c2cc1OC)OCO5)CCN3C [Dehydrodicentrine] (compound dose: 10 uM)
Result string: 0.807

Query string: // returns reported kynurenine production for input C/C1=C\[C@@H]2[C@H](CC/C(C)=C/CC(=O)/C(C)=C/CC1)C2(C)C [5-ketocasbene/9-ketocasbene] (compound dose: 10 uM)
Result string: 1.03

Query string: // returns reported kynurenine production for input COC(=O)C1=CC[C@@]23CC[C@@H]([C@@](C)(/C=C/C=C(\C)C(=O)O)OC2=O)[C@@]3(OC(C)=O)CC1 [Pseudolaric Acid B] (compound dose: 10 uM)
Result string: 0.62

Query string: // returns reported kynurenine production for input CC1(C)CC[C@]2(C(=O)O)CC[C@]3(C)C(=CC[C@@H]4[C@@]5(C)CC[C@H](O)[C@@](C)(CO)[C@@H]5CC[C@]43C)[C@@H]2C1 [Hederagenin] (compound dose: 10 uM)
Result string: 1.07

Query string: // returns reported kynurenine production for input CC1(C)CCC[C@](C)([C@H]2CC[C@]3(C)[C@@H]2[C@H](O)C[C@@H]2[C@@]4(C)CC[C@H](O)C(C)(C)[C@@H]4CC[C@]23C)O1 [Panaxadiol] (compound dose: 10 uM)
Result string: 0.719

Query string: // returns reported kynurenine production for input CC(C)=CC/C=C(/C)[C@H]1CC[C@@]2(C)[C@@H]1[C@@H](O)CC1[C@@]3(C)CCC(O[C@@H]4O[C@H](CO)[C@@H](O)[C@H](O)[C@H]4O)C(C)(C)C3CC[C@]12C (some centres not stated) [Ginsenoside Rh3] (compound dose: 10 uM)
Result string: 0.858

Query string: // returns reported kynurenine production for input C[C@@]12CC[C@@H]3[C@@](CC[C@H]4[C@@]3(C)CCC[C@@]4(C)C(=O)O)(CC1=O)C2 [Isosteviol] (compound dose: 10 uM)
Result string: 0.998

Query string: // returns reported kynurenine production for input CC(=O)OC(CC(C)C1=C2C[C@H](O)C3[C@@]4(C)CCC(=O)C(C)(C)C4CC[C@]3(C)[C@@]2(C)CC1)C1OC1(C)C (some centres not stated) [Alisol B 23-acetate] (compound dose: 10 uM)
Result string: 1.27

Query string: // returns reported kynurenine production for input CC(=O)O[C@]12CCC(C(=O)O)=CC[C@]13CC[C@H]2[C@@](C)(/C=C/C=C(\C)C(=O)O)OC3=O [Pseudolaric Acid C2] (compound dose: 10 uM)
Result string: 0.728

Query string: // returns reported kynurenine production for input C[C@@H]1O[C@@H](O[C@H]2[C@H](O[C@H]3CC[C@@]4(C)[C@@H](CC[C@]5(C)[C@@H]4CC=C4[C@@H]6CC(C)(C)CC[C@]6(C(=O)O)CC[C@]45C)[C@]3(C)CO)OC[C@H](O[C@@H]3O[C@H](CO)[C@@H](O)[C@H](O)[C@H]3O)[C@@H]2O)[C@H](O)[C@H](O)[C@H]1O [Pulsatilla saponin D] (compound dose: 10 uM)
Result string: 0.141
